target_or_test_system: T1, human amylin 3(a) receptor (human calcitonin receptor co-expressed with RAMP-3) (human, UniProt P30988 25-474; O60896 24-148, limits assumed)
T1 construct: whole, on cells; functional assay (Assay II a) used the whole cells; also called hAmylin-R; human amylin receptor
T1 sequence (looked up) 1: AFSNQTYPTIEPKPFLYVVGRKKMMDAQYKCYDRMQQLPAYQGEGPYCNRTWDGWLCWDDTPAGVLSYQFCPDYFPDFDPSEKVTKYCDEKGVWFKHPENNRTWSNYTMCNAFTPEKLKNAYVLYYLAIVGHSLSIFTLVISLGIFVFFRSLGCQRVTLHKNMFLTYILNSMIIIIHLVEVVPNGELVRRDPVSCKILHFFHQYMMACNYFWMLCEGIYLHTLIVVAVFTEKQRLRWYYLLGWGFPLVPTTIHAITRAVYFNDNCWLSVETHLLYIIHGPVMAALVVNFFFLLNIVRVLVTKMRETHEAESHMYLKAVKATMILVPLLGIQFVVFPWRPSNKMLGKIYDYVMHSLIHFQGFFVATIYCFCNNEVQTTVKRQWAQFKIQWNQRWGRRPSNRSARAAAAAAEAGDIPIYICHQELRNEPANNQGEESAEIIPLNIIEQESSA
T1 sequence (looked up) 2: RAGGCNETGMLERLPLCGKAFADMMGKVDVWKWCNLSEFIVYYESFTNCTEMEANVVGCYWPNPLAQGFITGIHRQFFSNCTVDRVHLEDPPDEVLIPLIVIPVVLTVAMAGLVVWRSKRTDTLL
run_description: SPA competition binding (Assay V): displacement of 125I-rat amylin from membranes of BHK cells with human calcitonin receptor + RAMP-3
Numbered stars: 1 amine (or outer) side, 2 acyl side, 3 side chain; on linkers, the order of the positions; unused ones are H or OH. Bridge positions count the residues as written; N and C are the ends. Side chains are listed from the residue outwards. Ends that are not written are not given here. * marks the point of attachment. C20 diacid = O=C(O)CCCCCCCCCCCCCCCCCCC(=O)*; γGlu = O=C(O)[C@H](CCC(=O)[*:2])N[*:1]
measure: pIC50
Answers are plain numbers, as −log10 of the molar value.

Please list pIC50 recorded for the binder K([γGlu-γGlu-C20 diacid])CNTATCATQRLADFLRHSSPNFGAIPSSTNVGPRTY-NH2 (disulfide 2-7, also called compound 130)
9.34
